Assay: Kinetic parameter for hydrolysis of 1 by Antibody 2D10 after addition of compound 12
Type: ADME
readout-label: pKi
The quantity pKi is defined as the negative base-10 logarithm of the molar concentration.

Q) # query: pKi of entry `CC(=O)O[C@@H](COCc1ccc([N+](=O)[O-])cc1)COP(=O)(O)CCCCCC(=O)O`
A) 5.55
